# test-name: Volume of distribution at steady state in Sprague-Dawley rat at 2 mg/kg, iv by LC-MS/MS analysis
# Format: ADME, organism-based
# conditions: in vivo, read-out: Vdss
measure: Vd (L/kg)
Number only, in L/kg; omit the unit.

Q: Look at this molecule and give its reported Vd. C[C@@H]1CN(c2nc(N3CCOCC3)c3sc(-c4ccn[nH]4)cc3n2)C[C@H](C)O1
Result: 4.4

###

I'd be grateful if you could share measured IC50 for these entries.
# system: Phosphatidylinositol 4,5-bisphosphate 3-kinase catalytic subunit beta isoform (Homo sapiens)
# Sequence (P42338 whole entry, canonical isoform): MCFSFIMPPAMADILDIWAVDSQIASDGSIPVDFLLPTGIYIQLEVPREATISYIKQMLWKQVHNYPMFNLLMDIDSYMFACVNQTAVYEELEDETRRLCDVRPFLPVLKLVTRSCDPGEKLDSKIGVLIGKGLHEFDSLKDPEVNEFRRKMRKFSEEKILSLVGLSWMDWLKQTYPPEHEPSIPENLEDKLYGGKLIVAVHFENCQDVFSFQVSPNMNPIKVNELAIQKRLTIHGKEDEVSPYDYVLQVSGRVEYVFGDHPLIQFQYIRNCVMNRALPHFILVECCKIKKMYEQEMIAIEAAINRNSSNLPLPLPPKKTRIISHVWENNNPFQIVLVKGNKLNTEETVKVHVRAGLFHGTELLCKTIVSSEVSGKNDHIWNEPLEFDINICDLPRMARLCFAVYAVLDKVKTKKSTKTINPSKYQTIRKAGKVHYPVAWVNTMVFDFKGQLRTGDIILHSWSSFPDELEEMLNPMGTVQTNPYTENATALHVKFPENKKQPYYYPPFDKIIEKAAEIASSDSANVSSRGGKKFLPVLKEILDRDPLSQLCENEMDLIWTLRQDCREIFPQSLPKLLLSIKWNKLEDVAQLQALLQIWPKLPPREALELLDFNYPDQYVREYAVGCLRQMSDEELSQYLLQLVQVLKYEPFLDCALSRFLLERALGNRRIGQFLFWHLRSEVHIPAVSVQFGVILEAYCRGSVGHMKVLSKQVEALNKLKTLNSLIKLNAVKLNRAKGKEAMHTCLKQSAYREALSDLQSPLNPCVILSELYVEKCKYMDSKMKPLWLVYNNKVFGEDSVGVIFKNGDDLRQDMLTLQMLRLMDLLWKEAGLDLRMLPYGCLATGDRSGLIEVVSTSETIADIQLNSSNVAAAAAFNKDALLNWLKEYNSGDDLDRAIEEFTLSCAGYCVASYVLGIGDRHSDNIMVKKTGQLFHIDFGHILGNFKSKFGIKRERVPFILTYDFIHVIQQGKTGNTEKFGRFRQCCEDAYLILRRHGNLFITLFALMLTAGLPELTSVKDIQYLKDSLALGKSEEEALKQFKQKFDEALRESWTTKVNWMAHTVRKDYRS
# test-name: Inhibition of PI3Kbeta (unknown origin) using PIP2 as substrate after 1 hr by ADP-Glo luminescence assay
Provide the reading as a plain figure in nM.

Q: Entry C[C@@H]1CN(c2nc(N3CCOCC3)c3sc(-c4ccn[nH]4)cc3n2)C[C@H](C)O1 : reported IC50 = ?
Result: 175

Q: IC50 lookup needed for C[C@@H]1CN(c2nc(N3CCOCC3)c3sc(-c4cnc(N)nc4)cc3n2)C[C@H](C)O1 , thanks.
Result: 317

###

# test-name: Oral bioavailability in Sprague-Dawley rat at 10 mg/kg by LC-MS/MS analysis
# Assay type: ADME, organism-based
# conditions: in vivo
measure: bioavailability (%)
Express your answer in %, writing the number without its unit.

Q: Returns the measured bioavailability for the input compound. Input: C[C@@H]1CN(c2nc(N3CCOCC3)c3sc(-c4ccn[nH]4)cc3n2)C[C@H](C)O1
Result: 41

###

# test-name: AUC in Sprague-Dawley rat at 10 mg/kg, po by LC-MS/MS analysis
# Type: ADME, organism-based
# conditions: in vivo
measure: AUC (µM·h)
API: value field is a number in µM·h; no unit string.

Q: Which AUC is listed for C[C@@H]1CN(c2nc(N3CCOCC3)c3sc(-c4ccn[nH]4)cc3n2)C[C@H](C)O1 ?
Result: 5.2

###

# test-name: Clearance in Sprague-Dawley rat at 2 mg/kg, iv by LC-MS/MS analysis
# Type: ADME, organism-based
# conditions: in vivo
measure: clearance (mL/min/kg)
Give just the number in mL/min/kg; leave the unit off.

Q: Give its clearance value. Item: C[C@@H]1CN(c2nc(N3CCOCC3)c3sc(-c4ccn[nH]4)cc3n2)C[C@H](C)O1
Result: 29

###

For each of the compounds below, state its IC50.
# Tested on: LNCaP
# test-name: cells
# conditions: Homo sapiens, 72 h
Output should be the measured figure followed by the unit it is expressed in.

Q: Give its IC50 value. Item: CCC(O)c1cc2nc(N3C[C@@H](C)O[C@@H](C)C3)nc(N3CCOCC3)c2s1 (stereo partly specified)
Result: 1600 nM

Q: Which value of IC50 has been reported for C[C@@H]1CN(c2nc(N3CCOCC3)c3sc(-c4ccc(N)nc4)cc3n2)C[C@H](C)O1 in the records?
Result: 1130 nM

Q: Could you share which IC50 value was measured for Cc1c(-c2ccn[nH]2)sc2c(N3CCOCC3)nc(N3C[C@@H](C)O[C@@H](C)C3)nc12 ?
Result: 1100 nM

Q: Fill in: IC50 of C[C@@H]1CN(c2nc(N3CCOCC3)c3sc(CO)cc3n2)C[C@H](C)O1 is ___
Result: 1780 nM

Q: Endpoint output: IC50 of C[C@@H]1CN(c2nc(N3CCOCC3)c3sc(-c4cn[nH]c4)cc3n2)C[C@H](C)O1 . Value?
Result: 4050 nM

Q: Query: IC50; subject: C[C@@H]1COCCN1c1nc(N2CCOCC2)c2sc(CO)cc2n1
Result: 2630 nM

Q: Given the compound OCc1cc2nc(N3CCSCC3)nc(N3CCOCC3)c2s1 , what is its reported IC50?
Result: 4200 nM

Q: Can you look up the measured IC50 of CC(O)c1cc2nc(N3C[C@@H](C)O[C@@H](C)C3)nc(N3CCOCC3)c2s1 (stereo partly specified) for me?
Result: 2590 nM

Q: Which IC50 is reported for this compound? C[C@@H]1CN(c2nc(N3CCOCC3)c3sc(C(N)=O)cc3n2)C[C@H](C)O1
Result: 3270 nM

Q: Please give the measured IC50 for this compound: OCc1cc2nc(N3CCOc4ccccc43)nc(N3CCOCC3)c2s1
Result: 1820 nM

Q: # IC50 lookup, item C[C@@H]1CN(c2nc(N3CCOCC3)c3sc(-c4cccnc4)cc3n2)C[C@H](C)O1
Result: 3000 nM

Q: Looking for the measured IC50 of C[C@@H]1CN(c2nc(N3CCOCC3)c3sc(-c4ccccn4)cc3n2)C[C@H](C)O1 , can you help?
Result: 4430 nM

Q: Please give the measured IC50 for this compound: C[C@@H]1CN(c2nc(N3CCOCC3)c3sc(-c4ccco4)cc3n2)C[C@H](C)O1
Result: 2640 nM

Q: If you can, please state the reported IC50 value of C[C@@H]1CN(c2nc(N3CCOCC3)c3sc(-c4ccn[nH]4)cc3n2)C[C@H](C)O1 .
Result: 210 nM

Q: Return reported IC50; argument: C[C@@H]1CN(c2nc(N3CCOCC3)c3sc(-c4ccc[nH]4)cc3n2)C[C@H](C)O1
Result: 2390 nM

Q: Which IC50 is reported for this compound? C[C@@H]1CN(c2nc(N3CCOCC3)c3sc(-c4ccoc4)cc3n2)C[C@H](C)O1
Result: 6770 nM

Q: Request the reported IC50 associated with C[C@@H]1CN(c2nc(N3CCOCC3)c3sc(-c4cnc(N)nc4)cc3n2)C[C@H](C)O1
Result: 4530 nM

Q: // returns reported IC50 for input OCc1cc2nc(N3CCOCC3)nc(N3CCOCC3)c2s1
Result: 2060 nM

Q: Would you mind telling me what IC50 value was observed for O=C(O)c1cc2nc(N3CCOCC3)nc(N3CCOCC3)c2s1 ?
Result: 23600 nM

Q: # get_value(readout='IC50', item= CS(=O)(=O)N1CCN(c2nc(N3CCOCC3)c3sc(CO)cc3n2)CC1 )
Result: 6160 nM

Q: Give the measured IC50 of C[C@@H]1CN(c2nc(N3CCOCC3)c3sc(-c4ccccc4O)cc3n2)C[C@H](C)O1 .
Result: 2380 nM

Hey, just so you know, these numbers are from ChEMBL document CHEMBL4049442.
